Molecular target: Human lysyl tRNA Synthetase (KRS) (Homo sapiens, UniProt Q15046)
Construct: His tag with PreScission site (His PP pET15b); made in house; host or cells: E. coli BL21 (DE3)
Sequence (Q15046 whole entry): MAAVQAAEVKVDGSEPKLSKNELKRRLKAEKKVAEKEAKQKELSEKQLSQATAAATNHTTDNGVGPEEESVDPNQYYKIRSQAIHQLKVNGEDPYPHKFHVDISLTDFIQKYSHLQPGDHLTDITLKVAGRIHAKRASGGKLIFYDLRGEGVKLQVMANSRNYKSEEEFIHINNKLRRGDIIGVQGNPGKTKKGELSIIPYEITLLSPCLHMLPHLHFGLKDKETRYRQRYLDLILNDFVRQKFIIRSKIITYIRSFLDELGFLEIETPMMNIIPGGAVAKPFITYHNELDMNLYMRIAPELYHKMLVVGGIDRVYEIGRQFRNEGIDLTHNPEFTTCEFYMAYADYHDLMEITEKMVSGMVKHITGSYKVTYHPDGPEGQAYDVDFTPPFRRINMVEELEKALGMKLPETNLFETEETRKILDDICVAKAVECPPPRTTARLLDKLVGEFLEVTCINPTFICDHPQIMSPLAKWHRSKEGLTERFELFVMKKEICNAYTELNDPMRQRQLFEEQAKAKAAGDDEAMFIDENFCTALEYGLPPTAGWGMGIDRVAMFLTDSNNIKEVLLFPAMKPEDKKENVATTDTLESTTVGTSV
Assay: In vitro inhibition of human lysyl tRNA synthetase (KRS), Biomol green phosphate detection
Format: biochemical
Details: 3.5 μM ATP, 6 μM L-Lysine, 5 h room temperature; read-out: Hs KRS pIC50 (converted)
Result type: IC50 (µM)

Example entries begin here.
Nc1nc2c(c(C(F)(F)F)n1)C(=O)N(C[C@@H]1CCC[C@@H](C(F)(F)F)C1)C2 [Compound 5] = 20
Nc1nc2c(c(C(F)(F)F)n1)C(=O)N(C[C@@H]1CCC[C@H](C(F)(F)F)C1)C2 [Compound 1] = 20

(a) Cc1nc(N)nc2c1C(=O)N(C[C@@H]1CCC[C@H](C(F)(F)F)C1)C2 [Compound 2]
(b) Nc1nc2c(c(C(F)(F)F)n1)C(=O)N(C[C@H]1CCC[C@H](C(F)(F)F)C1)C2 [Compound 7]
Could you tell me which of these two has the smaller IC50 figure? First: a Second: b // caller expects the label of the chosen entry
a

###

Biological target: Cryptosporidium parvum lysyl t-RNA synthetase (Cp KRS) (Cryptosporidium parvum)
Sequence (Q5CR27 entry or part of it): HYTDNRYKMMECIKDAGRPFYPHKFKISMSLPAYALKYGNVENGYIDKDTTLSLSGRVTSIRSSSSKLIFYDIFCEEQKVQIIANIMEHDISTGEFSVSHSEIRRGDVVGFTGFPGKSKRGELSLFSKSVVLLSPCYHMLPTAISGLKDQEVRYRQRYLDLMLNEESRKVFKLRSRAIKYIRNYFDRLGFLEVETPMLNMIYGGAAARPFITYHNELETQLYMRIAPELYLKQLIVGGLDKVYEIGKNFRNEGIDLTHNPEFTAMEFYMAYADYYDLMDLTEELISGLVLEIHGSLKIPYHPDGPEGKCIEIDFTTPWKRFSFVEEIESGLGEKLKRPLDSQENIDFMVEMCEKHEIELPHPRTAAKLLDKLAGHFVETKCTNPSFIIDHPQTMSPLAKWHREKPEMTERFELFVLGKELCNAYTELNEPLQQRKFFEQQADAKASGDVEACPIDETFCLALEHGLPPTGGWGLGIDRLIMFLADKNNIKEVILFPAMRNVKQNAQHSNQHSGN
Assay: In vitro inhibition of Cryptosporidium lysyl tRNA synthetase (KRS), Biomol green phosphate detection
Format: biochemical
Conditions: 300 nM CpKRS, 500 μM ATP, 1.2 mM L-Lysine, 8 h room temperature; read-out: C. parvum KRS pIC50 (converted)
Result type: IC50 (nM)

(P) Cc1nc(N)nc2c1C(=O)N(C[C@@H]1CCC[C@H](C(F)(F)F)C1)C2 [Compound 2]
(Q) Nc1nc2c(c(C(F)(F)F)n1)C(=O)N(C[C@@H]1CCC[C@@H](C(F)(F)F)C1)C2 [Compound 5]
Could you tell me which of these two has the smaller IC50 figure? First: P Second: Q // caller expects the label of the chosen entry
P

(1) Nc1nc2c(c(C(F)(F)F)n1)C(=O)N(C[C@@H]1CCC[C@H](C(F)(F)F)C1)C2 [Compound 1]
(2) Nc1nc2c(c(C(F)(F)F)n1)C(=O)N(C[C@H]1CCC[C@H](C(F)(F)F)C1)C2 [Compound 7]
(3) Nc1nc2c(c(C(F)(F)F)n1)C(=O)N(CC1CCCC3(CC3)C1)C2 (racemic) [Compound 4]
Let's sort these by IC50, smallest first. Go ahead? The response must list the labels following the requested ordering.
1, 3, 2
(1: 794 nM, 3: 2510 nM, 2: 15800 nM)

###

Biological target: Human lysyl tRNA Synthetase (KRS) (Homo sapiens, UniProt Q15046)
Construct: His tag with PreScission site (His PP pET15b); made in house; host or cells: E. coli BL21 (DE3)
Assay: In vitro inhibition of human lysyl tRNA synthetase (KRS), Biomol green phosphate detection
Assay type: biochemical
Conditions: 3.5 μM ATP, 6 μM L-Lysine, 5 h room temperature; read-out: Hs KRS pIC50 (converted)
Result type: IC50

Nc1nc2c(c(C(F)F)n1)C(=O)N(C[C@@H]1CCC[C@H](C(F)(F)F)C1)C2 = > 100 µM
Nc1nc2c(c(C(F)(F)F)n1)C(=O)N(C[C@H]1CCC[C@@H](C(F)(F)F)C1)C2 = > 100 µM

Please turn your attention to the following entry.
Quick note, IC50 for Nc1nc2c(c(C(F)(F)F)n1)C(=O)N(CC1CCCC3(CC3)C1)C2 (racemic) landed at > 100 µM
